Target protein (sequence): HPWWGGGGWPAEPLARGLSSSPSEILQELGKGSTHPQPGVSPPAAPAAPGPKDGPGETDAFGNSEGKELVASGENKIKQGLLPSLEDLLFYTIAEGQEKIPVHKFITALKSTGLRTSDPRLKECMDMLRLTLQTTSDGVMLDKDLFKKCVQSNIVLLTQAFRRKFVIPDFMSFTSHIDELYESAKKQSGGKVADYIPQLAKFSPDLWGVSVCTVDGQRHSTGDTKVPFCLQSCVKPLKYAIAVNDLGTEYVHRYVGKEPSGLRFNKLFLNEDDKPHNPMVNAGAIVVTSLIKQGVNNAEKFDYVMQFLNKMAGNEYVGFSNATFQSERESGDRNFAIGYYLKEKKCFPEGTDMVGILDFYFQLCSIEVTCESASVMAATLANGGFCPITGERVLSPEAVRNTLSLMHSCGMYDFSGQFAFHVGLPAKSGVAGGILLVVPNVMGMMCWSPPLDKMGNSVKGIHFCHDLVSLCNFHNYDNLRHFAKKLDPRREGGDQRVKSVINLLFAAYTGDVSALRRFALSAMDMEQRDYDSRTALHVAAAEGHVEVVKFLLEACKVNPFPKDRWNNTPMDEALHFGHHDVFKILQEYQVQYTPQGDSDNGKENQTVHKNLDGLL
pIC50: −log10 of the molar value.

- Smiles string: "CCCOc1ccccc1-c1nc2nn[nH]c2c(=O)[nH]1"
  pIC50: "~3.70"

Every entry's value here was drawn from patent US20150273088A1.
